- Experimental System: HCV polymerase (NS5B570n-Con1) (Hepatitis C virus genotype 1b, UniProt Q9WMX2)
- Construct: contains a 21 amino acid deletion at the C-terminus relative to the full-length HCV polymerase; 6-histidine (N); made in house; host or cells: E. coli strain BL21(DE) pLysS (pET17b)
- Protocol Description: biochemical
- Design: species or system HCV Con1 strain
- Stated Conditions: IC50 HCV NS5B RNA Polymerase Assay, values without asterisk; 20 nM NS5B570n-Con1 enzyme, 20 nM cIRES RNA template
Mark 1 (yes) only for IC50 values smaller than 70 nM; exact matches and larger values are 0 (no).

Worked examples follow.
COc1c(C(=O)c2ccc(F)cc2)cc(-c2ccc[nH]c2=O)cc1C(C)(C)C [I-50]	1 (yes)
CC(C)(C)c1cc(CCc2ccc(NS(C)(=O)=O)cn2)c(C#N)c(-c2ccc[nH]c2=O)c1 [I-114]	1 (yes)
CC(C)(C)c1cc(/C=C/c2ccc(NS(C)(=O)=O)cc2)cc(-c2ccc[nH]c2=O)c1 [I-141]	1 (yes)
COc1c(C(=O)c2cc(F)cc(F)c2)cc(-c2ccc[nH]c2=O)cc1C(C)(C)C [I-52]	0 (no)
COc1c(C(=O)Nc2cccc(CNS(C)(=O)=O)c2)cc(-c2ccc[nH]c2=O)cc1C(C)(C)C [I-112]	1 (yes)

# input hey, is IC50 for CC(C)(C)c1cc(Cl)c(O)c(-c2ccc[nH]c2=O)c1 [I-16] lower than 70 nM or not?
# output 0 (no)

# input For COc1c(NC(=O)c2ccc(NS(C)(=O)=O)cc2F)cc(-c2ccc[nH]c2=O)cc1C(C)(C)C [I-281] , is the recorded IC50 below the cut-off of 70 nM?
# output 1 (yes)

# input Dear colleague, could you confirm whether IC50 of COc1c(CCC(=O)O)cc(-c2ccc[nH]c2=O)cc1C(C)(C)C [I-22] falls below 70 nM? Thanks.
# output 0 (no)

# input Criterion: IC50 strictly below 70 nM. Is it met by CC(C)(C)c1cc(CCc2ccc(NS(C)(=O)=O)cc2C#N)c(O)c(-c2ccc[nH]c2=O)c1 [I-216] ?
# output 1 (yes)

# input Is the reported IC50 for COc1c(C(=O)NCCc2ccccc2)cc(-c2ccc[nH]c2=O)cc1C(C)(C)C [I-34] strictly below 70 nM?
# output 0 (no)

====

The entries below come with measured pIC50 values attached.
- Experimental System: HCV polymerase (NS5B570n-Con1) (Hepatitis C virus genotype 1b);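 note: recombinant His-tagged enzyme from E. coli, radiolabeled nucleotide incorporation into acid-insoluble RNA read by scintillation after filtration, no-enzyme background subtracted, activity relative to positive control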
- Construct: contains a 21 amino acid deletion at the C-terminus relative to the full-length HCV polymerase; 6-histidine (N); made in house; host or cells: E. coli strain BL21(DE) pLysS (pET17b)
- Protocol Description: biochemical
- Design: species or system HCV Con1 strain
- Stated Conditions: IC50 HCV NS5B RNA Polymerase Assay, values without asterisk; 20 nM NS5B570n-Con1 enzyme, 20 nM cIRES RNA template
Lab note — pIC50 values are minus log10 of concentrations in M.

Completed entries (count: 5):
COc1c(NC(=O)c2ccc(N)c(F)c2)cc(-c2ccc[nH]c2=O)cc1C(C)(C)C	8.52
COc1c(NC(=O)c2ccc(N)c(C)c2)cc(-c2ccc[nH]c2=O)cc1C(C)(C)C	7.85
COc1c(CC(C#N)c2ccc(NS(C)(=O)=O)cc2)cc(-c2ccc[nH]c2=O)cc1C(C)(C)C (centres unmarked)	8.10
COc1c(CCc2ccc(NS(C)(=O)=O)nc2)cc(-c2ccc[nH]c2=O)cc1C(C)(C)C	8.52
COc1c(CCc2ccc(NS(C)(=O)=O)cc2)cc(-c2ccc[nH]c2=O)c(F)c1C(C)(C)C	8.05

# input Which pIC50 value belongs to COc1c(CCc2ccc(N)cc2)cc(-c2ccc[nH]c2=O)cc1C1(C)CC1 ?
# output 6.23

# input Return reported pIC50; argument: CC(C)(C)c1cc(CO)c(O)c(-c2ccc[nH]c2=O)c1
# output 5.80

# input Look up pIC50: COc1c(CC(C)(CO)c2ccc(NS(C)(=O)=O)cc2)cc(-c2ccc[nH]c2=O)cc1C(C)(C)C (centres unmarked)
# output 7.72
